System: UniProt P18031
Sequence (P18031 whole entry): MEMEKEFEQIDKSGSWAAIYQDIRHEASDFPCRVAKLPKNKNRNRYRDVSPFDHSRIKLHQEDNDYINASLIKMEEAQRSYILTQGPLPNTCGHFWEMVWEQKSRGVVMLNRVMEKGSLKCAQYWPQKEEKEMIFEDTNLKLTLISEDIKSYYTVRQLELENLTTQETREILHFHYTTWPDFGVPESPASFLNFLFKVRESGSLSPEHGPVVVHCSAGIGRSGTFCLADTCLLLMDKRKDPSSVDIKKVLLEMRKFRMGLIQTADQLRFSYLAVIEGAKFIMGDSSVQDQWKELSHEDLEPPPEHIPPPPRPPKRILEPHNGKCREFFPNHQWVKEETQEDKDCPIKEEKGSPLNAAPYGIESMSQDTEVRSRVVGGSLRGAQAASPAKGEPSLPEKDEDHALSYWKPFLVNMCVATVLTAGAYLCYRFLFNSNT
Assay notes: Inhibitory activity against protein tyrosine phosphatase 1B (PTP1B) was determined in fluorescein diphosphate (FDP) assay
In this section we review reported IC50 values for a set of compounds.
Report as a plain number; the unit µM is understood.

INSERT INTO results (compound, readout_kind, result_value) VALUES
  ('O=P(O)(O)C(F)(F)c1ccc(/C=C/CC(Cc2ccc(C(F)(F)P(=O)(O)O)cc2)(c2ccccc2)n2nnc3ccccc32)cc1 (stereo not drawn)', 'IC50', 0.016),
  ('O=P(O)(O)C(F)(F)c1ccc(CC(Cc2ccc(C(F)(F)P(=O)(O)O)cc2)(c2nc3ccccc3s2)n2nnc3ccccc32)cc1', 'IC50', 0.018),
  ('O=P(O)(O)C(F)(F)c1ccc(CC(Cc2ccc(C(F)(F)P(=O)(O)O)cc2)(c2nnn[nH]2)n2nnc3ccccc32)cc1', 'IC50', 0.032),
  ('O=P(O)(O)C(F)(F)c1ccc(CC(Cc2ccc(-c3ccccc3-c3nn[nH]n3)cc2)(c2ccccc2)n2nnc3ccccc32)cc1 (stereo not drawn)', 'IC50', 0.074),
  ('O=P(O)(O)C(F)(F)c1ccc(CC(Cc2ccc(Br)cc2)(c2ccccc2)n2nnc3ccccc32)cc1 (stereo not drawn)', 'IC50', 0.089),
  ('O=P(O)(O)C(F)(F)c1ccc(CC(Cc2ccc(OCc3ccccc3)cc2)(c2ccccc2)n2nnc3ccccc32)cc1 (stereo not drawn)', 'IC50', 0.098),
  ('O=P(O)(O)C(F)(F)c1ccc(CC(C/C=C/c2ccccc2)(c2ccccc2)n2nnc3ccccc32)cc1 (stereo not drawn)', 'IC50', 0.049);

Now for another entry.
Which value of IC50 has been reported for COC(=O)c1ccc(C(Cc2ccc(C(F)(F)P(=O)(O)O)cc2)(Cc2ccc(C(F)(F)P(=O)(O)O)cc2)n2nnc3ccccc32)cc1 in the records?
0.011

---

System: Tyrosine-protein phosphatase non-receptor type 1 (Homo sapiens)
Assay notes: Inhibitory activity against Protein tyrosine phosphatase 1B (PTP1B) over-expressed in intact Sf9 cell assay
Lab note: compare IC50 with 900 nM, writing 1 if less and -1 if equal or more.

INSERT INTO measurements (compound, assigned_category) VALUES
  ('O=P(O)(O)C(F)(F)c1ccc(CC(Cc2ccc(C(F)(F)P(=O)(O)O)cc2)(c2ccccc2)n2nnc3ccccc32)cc1', 1),
  ('O=P(O)(O)C(F)(F)c1ccc(CC(Cc2ccc(-c3ccccc3)cc2)(c2ccccc2)n2nnc3ccccc32)cc1 (configuration not stated)', -1),
  ('O=P(O)(O)C(F)(F)c1ccc(CC(Cc2ccc(Br)cc2)(c2ccccc2)n2nnc3ccccc32)cc1 (configuration not stated)', -1),
  ('O=P(O)(O)C(F)(F)c1ccc(CC(Cc2ccc(C(F)(F)P(=O)(O)O)cc2)(c2nnn[nH]2)n2nnc3ccccc32)cc1', -1),
  ('NS(=O)(=O)c1ccccc1-c1ccc(CC(Cc2ccc(C(F)(F)P(=O)(O)O)cc2)(c2ccccc2)n2nnc3ccccc32)cc1 (configuration not stated)', -1);

I'd appreciate it if you could check whether O=P(O)(O)C(F)(F)c1ccc(CC(CCCc2ccccc2)(c2ccccc2)n2nnc3ccccc32)cc1 (configuration not stated) has IC50 smaller than 900 nM.
1

Same lookup for O=P(O)(O)C(F)(F)c1ccc(/C=C/CC(Cc2ccc(C(F)(F)P(=O)(O)O)cc2)(c2ccccc2)n2nnc3ccccc32)cc1 (configuration not stated) , please.
1

---

In this section we review reported IC50 values for a set of molecules.
System: UniProt:P18031
Assay notes: Inhibitory activity against protein tyrosine phosphatase 1B (PTP1B) was determined in fluorescein diphosphate (FDP) assay
Report as a plain number; the unit nM is understood.

// known answers, use as guide
INSERT INTO measurements (molecule, result_value) VALUES
  ('NS(=O)(=O)c1ccccc1-c1ccc(CC(Cc2ccc(C(F)(F)P(=O)(O)O)cc2)(c2ccccc2)n2nnc3ccccc32)cc1 (configuration not stated)', 69),
  ('O=P(O)(O)C(F)(F)c1ccc(CC(c2ccccc2)n2nnc3ccccc32)cc1 (configuration not stated)', 8040),
  ('O=P(O)(O)C(F)(F)c1ccc(CC(Cc2ccc(C(F)(F)P(=O)(O)O)c(Br)c2)(c2ccccc2)n2nnc3ccccc32)cc1 (configuration not stated)', 5),
  ('O=C(OCc1ccccc1)C(Cc1ccc(C(F)(F)P(=O)(O)O)cc1)(c1ccccc1)n1nnc2ccccc21 (configuration not stated)', 240),
  ('O=P(O)(O)C(F)(F)c1ccc(CC(Cc2ccc(C(F)(F)P(=O)(O)O)cc2)(c2ccc3ccccc3n2)n2nnc3ccccc32)cc1', 20);

Which value of IC50 has been reported for O=P(O)(O)C(F)(F)c1ccc(CC(CCCc2ccccc2)(c2ccccc2)n2nnc3ccccc32)cc1 (configuration not stated) in the records?
46

Same lookup for O=P(O)(O)C(F)(F)c1ccc(CC(Cc2ccc(C(F)(F)P(=O)(O)O)cc2)(c2nc(-c3ccccc3)cs2)n2nnc3ccccc32)cc1 , please.
19

---

System: Tyrosine-protein phosphatase non-receptor type 2 (Homo sapiens)
Sequence (P17706 whole entry): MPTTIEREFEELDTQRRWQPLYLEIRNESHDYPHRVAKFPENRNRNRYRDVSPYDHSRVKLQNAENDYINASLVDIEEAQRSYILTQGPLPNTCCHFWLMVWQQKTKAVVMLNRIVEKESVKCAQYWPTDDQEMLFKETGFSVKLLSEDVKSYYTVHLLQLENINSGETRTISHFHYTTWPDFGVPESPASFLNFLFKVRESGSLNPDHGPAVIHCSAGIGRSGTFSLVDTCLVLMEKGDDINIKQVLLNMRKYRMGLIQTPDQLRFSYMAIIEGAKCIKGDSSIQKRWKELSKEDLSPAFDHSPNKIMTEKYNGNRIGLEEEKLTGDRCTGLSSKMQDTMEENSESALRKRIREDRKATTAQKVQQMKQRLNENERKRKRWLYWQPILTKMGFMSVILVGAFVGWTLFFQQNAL
Assay notes: Inhibitory activity against T cell protein tyrosine phosphatase
In this section we review reported IC50 values for a set of molecules.
Report as a plain number; the unit nM is understood.

// known answers, use as guide
INSERT INTO results (molecule, result_value) VALUES
  ('COC(=O)c1ccc(C(Cc2ccc(C(F)(F)P(=O)(O)O)cc2)(Cc2ccc(C(F)(F)P(=O)(O)O)cc2)n2nnc3ccccc32)cc1', 16),
  ('O=P(O)(O)C(F)(F)c1ccc(CC(c2ccccc2)n2nnc3ccccc32)cc1 (configuration not stated)', 7260),
  ('O=P(O)(O)C(F)(F)c1ccc(CC(CCCc2ccccc2)(c2ccccc2)n2nnc3ccccc32)cc1 (configuration not stated)', 72),
  ('O=P(O)(O)C(F)(F)c1ccc(CC(Cc2ccc(Br)cc2)(c2ccccc2)n2nnc3ccccc32)cc1 (configuration not stated)', 92),
  ('COC(CC(C)C)c1ccc2cc(-c3ccc(CC(Cc4ccc(C(F)(F)P(=O)(O)O)cc4)(c4ccccc4)n4nnc5ccccc54)cc3)cc(P(=O)(O)O)c2n1 (stereo in doubt; 21b)', 41),
  ('NS(=O)(=O)c1ccccc1-c1ccc(CC(Cc2ccc(C(F)(F)P(=O)(O)O)cc2)(c2ccccc2)n2nnc3ccccc32)cc1 (configuration not stated)', 82);

Now for another entry.
Which value of IC50 has been reported for O=P(O)(O)C(F)(F)c1ccc(CC(Cc2ccc(OCc3ccccc3)cc2)(c2ccccc2)n2nnc3ccccc32)cc1 (configuration not stated) in the records?
62

---

In this section we review reported IC50 values for a set of compounds.
System: Tyrosine-protein phosphatase non-receptor type 2 (Homo sapiens)
Assay notes: Inhibitory activity against T cell protein tyrosine phosphatase
Report as a plain number; the unit nM is understood.

Which value of IC50 has been reported for O=P(O)(O)C(F)(F)c1ccc(CC(Cc2ccc(C(F)(F)P(=O)(O)O)c(Br)c2)(c2ccccc2)n2nnc3ccccc32)cc1 (centres undefined) in the records?
4

Same lookup for O=P(O)(O)C(F)(F)c1ccc(/C=C/CC(Cc2ccc(C(F)(F)P(=O)(O)O)cc2)(c2ccccc2)n2nnc3ccccc32)cc1 (centres undefined) , please.
10

Same lookup for O=P(O)(O)C(F)(F)c1ccc(CC(Cc2ccc(C(F)(F)P(=O)(O)O)cc2)(c2ccccc2)n2nnc3ccccc32)cc1 , please.
10

Same lookup for O=P(O)(O)C(F)(F)c1ccc(CC(Cc2ccc(C(F)(F)P(=O)(O)O)cc2)(c2ccc(F)c(F)c2)n2nnc3ccccc32)cc1 , please.
8
